- Tested on: K-1 thyroid cancer cell line
- experiment_notes: MTT cell viability assay
- Type: cell-based
- details: K-1; MTT, 24 h; concentration required to inhibit cell proliferation by 50%; mean ± SD; read-out: CC50
// values below are reported CC50

Entry `CS(=O)(=O)c1cc2cc(Br)ccc2oc1=O` — recorded CC50 = > 100 µM

Entry `N#Cc1cc2cc(I)cc(I)c2oc1=O` — recorded CC50 = 57 µM

Entry `N#Cc1cc2cc(Br)ccc2oc1=O` — recorded CC50 = > 100 µM

Entry `CCOC(=O)c1cc2cc(Br)ccc2oc1=O` — recorded CC50 = > 100 µM

Entry `N#Cc1cc2cc(F)ccc2oc1=O` — recorded CC50 = > 100 µM

Entry `N#Cc1cc2cc(Cl)ccc2oc1=O` — recorded CC50 = > 100 µM

Entry `CCOC(=O)c1cc2cc(I)cc(I)c2oc1=O` — recorded CC50 = > 100 µM

Entry `CCOC(=O)c1cc2cc(Br)cc(Br)c2oc1=O` — recorded CC50 = > 100 µM

Entry `O=C(O)c1cc2cc(I)cc(I)c2oc1=O` — recorded CC50 = > 100 µM

Entry `N#Cc1cc2cc(Br)cc(Br)c2oc1=O` — recorded CC50 = 60 µM
